Assay: Simulated intestinal fluid (SIF) stability in the presence of various enzymes
Assay type: in vitro ADME
Settings: SIF + Carboxypeptidase A, 60 min, 1 μM

{"compound": "CCCCCCCCCCCCCCCC(=O)NCCOC(=O)CCC(=O)OC[C@H]1O[C@@](CO)(O[C@H]2O[C@H](CO)[C@@H](O)[C@H](O)[C@H]2O)[C@@H](O)[C@@H]1O [Compound I-7]", "% Remaining of Initial (n = 1), %": 4.1}
{"compound": "CCCCCCCCCCCCCCCC(=O)NCCOC(=O)CCC(=O)OCC(O)CO (stereo not shown) [Compound I-9]", "% Remaining of Initial (n = 1), %": 10}
{"compound": "CCCCC/C=C\\C/C=C\\CCCCCCCC(=O)OCCNC(=O)CCCCCCCCCCCCCCC [Compound I-6]", "% Remaining of Initial (n = 1), %": 60}
{"compound": "CC/C=C\\C/C=C\\C/C=C\\C/C=C\\C/C=C\\CCCC(=O)OCCNC(=O)CCCCCCCCCCCCCCC [Compound I-5]", "% Remaining of Initial (n = 1), %": 39}

====

Assay: Liver microsomal stability, dog
Conditions: male, Beagle, microsomes, Half-life, Dog liver microsomes

{"compound": "C[C@]12CC[C@H]3[C@@H](CCC4=CC(=O)CC[C@@]43C)[C@@H]1CC[C@@H]2O [Testosterone, testosterone, reference compound]", "half-life at 1 μM [min]": 33}

====

Assay: in vitro
Conditions: male, Sprague-Dawley, rat, 10 min, 1 μM
Please assign No whenever Measured concentration of analyte PEA, 10 min is at or above 0.05 µM, and Yes whenever it is below.

{"compound": "CC/C=C\\C/C=C\\C/C=C\\C/C=C\\C/C=C\\CCCC(=O)OCCNC(=O)CCCCCCCCCCCCCCC", "category": "Yes"}
{"compound": "CCCCC/C=C\\C/C=C\\CCCCCCCC(=O)OCCNC(=O)CCCCCCCCCCCCCCC", "category": "No"}
{"compound": "CCCCCCCCCCCCCCCC(=O)NCCOC(=O)CCC(=O)OCC(COC(=O)CCC)OC(=O)CCC (stereo not shown)", "category": "Yes"}
{"compound": "CCCCCCCCCCCCCCCC(=O)NCCOC(=O)CCC(=O)OCC(COC(=O)CCCCCCC)OC(=O)CCCCCCC (stereo not shown) [Compound I-3, PEA-Succinate-Glycerol-Di-Caprylic]", "category": "Yes"}
{"compound": "CCCCCCCCCCCCCCCC(=O)NCCOC(=O)CCC(=O)OCC(O)CO (stereo not shown)", "category": "No"}
{"compound": "CCCCCCCCCCCCCCCC(=O)NCCOC(=O)CCC(=O)OC[C@H]1O[C@@](CO)(O[C@H]2O[C@H](CO)[C@@H](O)[C@H](O)[C@H]2O)[C@@H](O)[C@@H]1O", "category": "No"}
{"compound": "CCCCCCCCCCCCCCCC(=O)NCCOC(=O)CCC", "category": "No"}

====

Test: in vitro
Conditions: male, Sprague-Dawley, rat, s9, Half-life (min)

{"compound": "CCCCCCCCCCCCCCCC(=O)NCCOC(=O)CCC(=O)OCC(COC(=O)CCCCCCC)OC(=O)CCCCCCC (centres unmarked) [Compound I-3, PEA-Succinate-Glycerol-Di-Caprylic]", "quantity unit": "min", "op": "=", "half-life at 1 μM": 26}
{"compound": "CCCCCCCCCCCCCCCC(=O)NCCOC(=O)CCC [Compound I-2]", "quantity unit": "min", "op": "=", "half-life at 1 μM": 5.6}
{"compound": "CC/C=C\\C/C=C\\C/C=C\\C/C=C\\C/C=C\\CCCC(=O)OCCNC(=O)CCCCCCCCCCCCCCC [Compound I-5]", "quantity unit": "min", "op": "=", "half-life at 1 μM": 38}
{"compound": "CCCCC/C=C\\C/C=C\\CCCCCCCC(=O)OCCNC(=O)CCCCCCCCCCCCCCC [Compound I-6]", "quantity unit": "min", "op": ">", "half-life at 1 μM": 60}
{"compound": "CCCCCCCCCCCCCCCC(=O)NCCOC(=O)CCC(=O)OCC(COC(=O)CCC)OC(=O)CCC (centres unmarked) [Compound I-11]", "quantity unit": "min", "op": "=", "half-life at 1 μM": 1.6}
